These data points were gathered from patent US7491733B2.

Counter-ions that a name gives are not always drawn.
Each entry below carries its recorded melting point.

Below, each entry is followed by its recorded melting point result.
N=C(N)NCc1nc2ccccc2[nH]1 (as salt: hydrochloride) [Compound 2] ... 171 to 173 °C
Cn1c(CNC(=N)N)cc2cc(F)ccc21 (as salt: hydrochloride) [Compound 14] ... 181 to 183 °C
COc1ccc2[nH]c(CNC(=N)N)cc2c1 (as salt: sulfate) [Compound 13] ... 213 to 215 °C

INPUT: Need melting point, item N=C(N)NCC1Cc2ccccc2S1 (stereo not drawn) [Compound 10]
OUTPUT: 187 to 189 °C

INPUT: Need melting point, item N=C(N)NCC1Cc2ccccc2O1 (stereo not drawn) [Compound 9]
OUTPUT: 139 to 141 °C

INPUT: Need melting point, item N=C(N)NCC1Cc2cc(F)c(F)cc2C1 (as salt: sulfate) [Compound 17]
OUTPUT: > 250 °C

* * *

Test system: Nostz Rats
Experiment: Oral antidiabetic activity in Nostz rats (non-insulin-dependent diabetes induced by neonatal steptozotocin); change in glycaemia
Type: in vivo
Conditions: Rattus norvegicus, 24 h, 200 mg/kg/day, one day of treatment (D1), blood sample two hours after the final administration, diabetic rats, read-out: percentage change in the glycaemia on D1 relative to D0
Where a name gives a salt, the structure may show the parent alone.
Give YES when the value for change in vivo at 200 mg/kg is at least -10%. Give NO when it is less.

N=C(N)NCC1Cc2ccccc2S1 (stereo not drawn) [Compound 10] ... NO
COc1ccc2c(c1)cc(CNC(=N)N)n2C [Compound 12] ... NO
N=C(N)NCC1Cc2ccccc2C1 [Compound 3, sulfate] ... NO
N=C(N)NCc1cc2ccccc2[nH]1 [Compound 7] ... NO
COc1ccc2[nH]c(CNC(=N)N)cc2c1 [Compound 13] ... NO

INPUT: Item CN(Cc1nc2ccccc2s1)C(=N)N [Compound 1, hydrochloride] with change in vivo at 200 mg/kg of -10% or above?
OUTPUT: YES

INPUT: Item CN(Cc1nc2ccccc2[nH]1)C(=N)N [Compound 6] with change in vivo at 200 mg/kg of -10% or above?
OUTPUT: YES

INPUT: Item N=C(N)NCc1cc2ccccc2o1 [Compound 15] with change in vivo at 200 mg/kg of -10% or above?
OUTPUT: NO

INPUT: Item N=C(N)NCc1nc2ccccc2s1 [Compound 5] with change in vivo at 200 mg/kg of -10% or above?
OUTPUT: NO

INPUT: Item COc1cc2c(cc1OC)CC(CNC(=N)N)C2 [Compound 11] with change in vivo at 200 mg/kg of -10% or above?
OUTPUT: YES

* * *

Counter-ions that a name gives are not always drawn.
Assay Endpoint: melting point

N=C(N)NCC1Cc2ccccc2N1 (stereo not drawn) (as salt: hemisulfate) ... 189 to 191 °C
CN(Cc1nc2ccccc2[nH]1)C(=N)N (as salt: hydrochloride) ... 253 to 255 °C
COc1ccc2c(c1)cc(CNC(=N)N)n2C (as salt: sulfate) ... 233 to 235 °C

INPUT: Need melting point, item CN(Cc1nc2ccccc2s1)C(=N)N (as salt: hydrochloride)
OUTPUT: 203 to 205 °C

INPUT: Need melting point, item COc1cc2c(cc1OC)CC(CNC(=N)N)C2 (as salt: sulfate)
OUTPUT: 191 to 193 °C

INPUT: Need melting point, item CN(CC1=Cc2ccccc2C1)C(=N)N (as salt: hydrochloride)
OUTPUT: 209 to 211 °C

INPUT: Need melting point, item N=C(N)NCc1nc2ccccc2s1 (as salt: hydrochloride)
OUTPUT: 196 to 198 °C

INPUT: Need melting point, item N=C(N)NCc1cc2ccccc2o1 (as salt: sulfate)
OUTPUT: 244 to 247 °C

INPUT: Need melting point, item N=C(N)NCC1Cc2ccccc2C1 (as salt: sulfate)
OUTPUT: 231 to 233 °C
